Target: ENPP-1 (Homo sapiens)
Construct: purchased Biovendor RD172124100
Sequence (P22413 1-925): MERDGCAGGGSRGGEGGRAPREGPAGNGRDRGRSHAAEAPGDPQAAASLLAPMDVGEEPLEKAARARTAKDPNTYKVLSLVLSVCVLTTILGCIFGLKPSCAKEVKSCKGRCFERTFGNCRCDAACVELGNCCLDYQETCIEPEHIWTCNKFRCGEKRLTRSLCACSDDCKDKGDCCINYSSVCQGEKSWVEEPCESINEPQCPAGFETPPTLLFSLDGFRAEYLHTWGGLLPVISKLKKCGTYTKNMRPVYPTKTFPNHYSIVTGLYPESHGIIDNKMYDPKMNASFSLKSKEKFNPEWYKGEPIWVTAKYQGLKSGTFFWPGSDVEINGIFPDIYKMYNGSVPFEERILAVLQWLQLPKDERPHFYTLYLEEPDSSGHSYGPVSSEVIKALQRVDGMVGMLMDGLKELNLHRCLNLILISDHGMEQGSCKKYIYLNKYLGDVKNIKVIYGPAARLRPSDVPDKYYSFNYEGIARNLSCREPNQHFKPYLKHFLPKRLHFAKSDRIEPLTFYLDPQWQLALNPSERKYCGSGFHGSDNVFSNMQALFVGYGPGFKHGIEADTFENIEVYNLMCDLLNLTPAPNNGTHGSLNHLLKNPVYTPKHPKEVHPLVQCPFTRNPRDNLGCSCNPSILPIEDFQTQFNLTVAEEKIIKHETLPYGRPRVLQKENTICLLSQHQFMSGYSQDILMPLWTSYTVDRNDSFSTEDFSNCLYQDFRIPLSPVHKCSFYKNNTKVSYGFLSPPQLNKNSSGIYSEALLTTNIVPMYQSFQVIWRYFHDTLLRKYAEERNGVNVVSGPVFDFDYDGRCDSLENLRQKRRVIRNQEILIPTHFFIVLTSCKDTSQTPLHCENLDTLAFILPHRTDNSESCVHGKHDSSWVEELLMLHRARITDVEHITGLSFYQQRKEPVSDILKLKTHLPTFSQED
Assay: ENPP-1 enzyme assay with cGAMP substrate
Type: biochemical
Conditions: 200 pM ENPP-1, 10 μM substrate 2′3′-cGAMP, pH 7.4, 37° C., 30 minutes, Transcreener AMP2/GMP2 kit; average IC50
IC50 listing for selected compounds.

COc1ccc2c(c1)c1ncccc1n2Cc1ccc(P(=O)(O)O)cc1 [Compound 13]; < 1 µM
COc1ccc2c(c1)c1c(=O)[nH]ncc1n2Cc1ccc(S(N)(=O)=O)cc1 [Compound 44]; < 1 µM
COc1ccc2c(c1F)c1ncccc1n2Cc1ccc(S(N)(=O)=O)cc1 [Compound 54]; < 1 µM
COc1ccc2c(c1)c1ncccc1n2Cc1ccc(C(F)(F)P(=O)(O)O)cc1 [Compound 58]; 1 to 10 µM

Query block: Look up IC50 for this compound: COc1ccc2c(c1)c1c(n2Cc2ccc(S(N)(=O)=O)cc2)CCNC1=O [Compound 41]
Result block: 1 to 10 µM

Query block: // query IC50 value for entry COc1ccc2c3c(n(Cc4ccc(S(N)(=O)=O)cc4)c2c1)CCNC3=O [Compound 42]
Result block: < 1 µM

Query block: What value of IC50 has been reported for the following compound? COc1ccc2c(c1)c1ncccc1n2CC1CCN(S(N)(=O)=O)CC1 [Compound 6]
Result block: < 1 µM

Query block: So what does the record say about IC50 for NS(=O)(=O)c1ccc(Cn2c3ccc(OC(F)(F)F)cc3c3ncccc32)cc1 [Compound 22] ?
Result block: 1 to 10 µM

Query block: Any idea what its IC50 is? The compound is COc1ccc2c(c1)c1ncccc1n2Cc1ccc(S(C)(=N)=O)cc1C (stereo not drawn) [Compound 18]
Result block: < 1 µM
